Assign TGI to each entry below.
Test system: MDA-MB-231 breast
run.description: NCI tumour cell line growth inhibition, 48 h

Take a look at these entries with their results.
- molecule: "Cn1ccc(C(=O)NCCN(CCNC(=O)c2ccn(C)c(=O)c2O)CCNC(=O)c2cccc(=O)n2O)c(O)c1=O"
  readout.value: "> 100 µM"
- molecule: "Cc1cc2oc(=N)c(C#N)c(C)c2cc1C"
  readout.value: "> 100 µM"
- molecule: "CN=C(N=Nc1c(O)[nH]c2ccccc12)SCC(=O)c1ccc(Br)cc1"
  readout.value: "19.8 µM"
- molecule: "O=C(/C=C/c1cc2ccccc2o1)N1CCN(c2ccccn2)CC1"
  readout.value: "> 100 µM"

Kindly give each listed record's TGI.
1. O=C(Nc1nc(C23CC4CC(CC(C4)C2)C3)cs1)c1cc2ccc(O)cc2oc1=O
2. COc1cc2c3c(n(C)c(=O)c2cc1OC)-c1cc2c(cc1/C3=C\CN)OCO2
3. CCOC(=O)C12OC(CCC1=O)C(C(=O)OC)=C2C(=O)OC (stereo not given)
4. COc1ccc(S(=O)(=O)c2nnc(S(=O)(=O)Cc3ccccc3)s2)cc1
5. CCn1c2ccccc2c2cc(NC(=O)Nc3ccc([N+](=O)[O-])cc3C)ccc21
6. Cn1cc(C2=C(c3cn(CCCCO)c4ccccc34)C(=O)NC2=O)c2ccccc21
7. CCCCCCc1cc2cc(C(=O)Nc3ccccc3)c(=N)oc2cc1O

48.7 µM
> 35.4 µM
> 10 µM
62.3 µM
24.6 µM
> 25 µM
> 100 µM

Kindly give each listed record's TGI.
1. CC(CO)(CO)N1C(=O)C2C3C=CC(C3)C2C1=O (stereo not given)
2. C=C(C)[C@@H]1CC[C@]2(C)[C@H](CC=C3[C@@H]4CC(C)(C)CC[C@]4(C(N)=O)CC[C@]32C)[C@@]1(C)CCC#N
3. CC1CCC(C(C)C)C(OC(=O)NCn2cc(-c3ccccc3)nn2)C1 (stereo not given)
4. COc1cc(F)ccc1-c1ncnc(Nc2cccc(CS(C)(=N)=O)c2)n1 (stereo not given)
5. Cn1cc(NC(=O)Nc2cc(C(=O)Nc3cc(C(=O)Nc4ccc(S(=O)(=O)O)c5cc(S(=O)(=O)O)ccc45)n(C)c3)n(C)c2)cc1C(=O)Nc1cc(C(=O)Nc2ccc(S(=O)(=O)O)c3cc(S(=O)(=O)O)ccc23)n(C)c1
6. CC(=O)Oc1ccc2c(C)cc(=O)oc2c1OC(C)=O

1. > 100 µM
2. > 100 µM
3. > 100 µM
4. > 100 µM
5. > 100 µM
6. > 100 µM

Kindly give each listed record's TGI.
1. O=C(O)C(NCc1ccccc1)C(NCc1ccccc1)C(=O)O (stereo not given)
2. c1ccc(CCNc2ccccn2)nc1
3. Clc1ccc2[nH]cc(-c3nnnn3-c3ccccc3)c2c1

["> 100 µM", "> 100 µM", "> 100 µM"]

---

Test system: MDA-MB-435
run.description: NCI tumour cell line growth inhibition, 48 h
metric.name: TGI (µM)
Numbers only, in µM.

Take a look at these entries with their results.
- smiles.data: "CCCCCCc1cc2cc(C(=O)Nc3ccccc3)c(=N)oc2cc1O"
  study.system: "MDA-MB-435"
  readout.value: 14.1
- smiles.data: "CC(C)=CC[C@]12CCN[C@H]1N(S(=O)(=O)c1ccccc1)c1ccccc12"
  study.system: "MDA-MB-435"
  readout.value: 32.5

Any idea what its TGI is? The molecule is COc1ccc2[nH]cc(C3(c4c[nH]c5ccc(OC)cc45)C(=O)Nc4ccc(F)cc43)c2c1 4.73

---

System: SNB-75 CNS
run.description: NCI tumour cell line growth inhibition, 48 h; in the data active = GI50 below about 0.43 µM; inactive = the rest
Hi there, use one of these labels in your reply, thanks! active, inactive

- compound: "O=C1Nc2ccccc2/C1=N\\[O-].O=C1Nc2ccccc2/C1=N\\[O-].[Cu+2]"
  category.label: "inactive"
- compound: "CCn1c2ccccc2c2cc(NC(=O)Nc3ccc([N+](=O)[O-])cc3C)ccc21"
  category.label: "inactive"
- compound: "O=C(CSc1nc2ccccc2nc1-c1ccccc1)Nc1ccc(F)cc1"
  category.label: "inactive"

Returns: the outcome recorded for Nc1c(C(=O)Nc2ccncc2)sc2nc3c(cc12)CCCCCCCC3 in this assay. inactive

Returns: the outcome recorded for C#C[C@]1(O)CCC2C3CCc4cc(O)ccc4C3CC[C@@]21C (stereo partly specified) in this assay. inactive

Returns: the outcome recorded for O=C1OCC2=C1C(c1cccc(Br)c1)c1cc3c(cc1N2CCO)CCC3 (stereo unspecified) in this assay. active

---

System: SW-620 colon
run.description: NCI tumour cell line growth inhibition, 48 h; in the data active = GI50 below about 0.43 µM; inactive = the rest
Hi there, use one of these labels in your reply, thanks! TRUE = active, FALSE = inactive

Before answering, review these 2 worked examples.
- molecule: "C=C(Cl)C(Br)(CCl)CCC(Br)C(C)(C)Cl (stereo not given)"
  category.label: "FALSE"
- molecule: "C[C@@H]1CC[C@@H]2[C@@H]1[C@H](OC(=O)/C=C/c1ccccc1)[C@]1(C3CCCCC3)C[C@@H](OC(=O)CO)[C@@]2(C)O1"
  category.label: "FALSE"

Returns: the outcome recorded for CCOC(=O)Nc1ccc(-c2nc(-c3cccc(OCCN4CCOCC4)c3)c(-c3ccnc(Br)c3)[nH]2)cc1 in this assay. FALSE

Returns: the outcome recorded for O=C(N[C@@H](c1ccc(Cl)c(Cl)c1)C1CNC1)c1ccc2cnccc2c1 in this assay. TRUE

Returns: the outcome recorded for CCCN1C(=O)N(CCC)C2C1NC(=S)N2/N=C/C=C/c1ccccc1OC (stereo not given) in this assay. TRUE

---

System: T-47D breast
run.description: NCI tumour cell line growth inhibition, 48 h
metric.name: TGI

Take a look at these entries with their results.
- molecule: "Fc1cc(-c2cc(-c3ccccc3)no2)c(Cl)cc1Cl"
  study.system: "T-47D breast"
  TGI: "> 57.7 µM"
- molecule: "N#CCCN(C(=O)Nc1ccccc1)[C@H]1CCCC[C@@H]1N(C(=O)Nc1ccccc1)c1ccccc1"
  study.system: "T-47D breast"
  TGI: "> 100 µM"
- molecule: "S=C(S)NCNC(=S)S.[Zn+2]"
  study.system: "T-47D breast"
  TGI: "> 100 µM"

Kindly give each listed record's TGI.
1. Cc1cc(S(=O)(=O)Nc2n[nH]c(N)n2)c(SCC(=O)O)cc1Cl
2. COc1cc(-c2cc(-c3cc4c([nH]c5ccccc54)c(-c4cc(OC)c(OC)c(OC)c4)n3)cc(-c3ccccc3)n2)cc(OC)c1OC

> 10 µM
35.4 µM

---

System: NCI/ADR-RES ovarian
run.description: NCI tumour cell line growth inhibition, 48 h
metric.name: TGI

- smiles.data: "COc1cc2c(C)cc(O)cc2c2cc(O)c(C)cc12"
  metric.name: "TGI"
  readout.value: "30.4 µM"
- smiles.data: "O=C(c1ccccc1)c1cc2ccccc2o1"
  metric.name: "TGI"
  readout.value: "> 100 µM"
- smiles.data: "COc1ccc2cc(/C=N/NC(=O)Nc3ccccc3)ccc2c1"
  metric.name: "TGI"
  readout.value: "> 100 µM"
- smiles.data: "Cc1cc(S(=O)(=O)Nc2n[nH]c(N)n2)c(SCC(=O)O)cc1Cl"
  metric.name: "TGI"
  readout.value: "> 10 µM"

Kindly give each listed record's TGI.
1. Cc1nc2c(nc1C)-c1[nH]c3c(c1C(=O)C2=O)CCCC3=O
2. CC(C)(C)OC(=O)[C@H]1CCC(=S)N1Cc1ccccc1

1. 6.47 µM
2. > 100 µM

---

System: 786-0 renal
run.description: NCI tumour cell line growth inhibition, 48 h
metric.name: TGI

Take a look at these entries with their results.
- compound: "CCOC(=O)CC[C@H](NC(=O)[C@H](N)Cc1ccc(N(CCCl)CCCl)cc1)C(=O)OCC"
  TGI: "23.5 µM"
- compound: "C1=CC(N(c2ccccc2)C2C=CCCC2)CCC1 (configuration not stated)"
  TGI: "> 100 µM"
- compound: "O=C1CCCC1CN1CCCC1 (configuration not stated)"
  TGI: "14.9 µM"
- compound: "CC1(CCOCc2ccccc2)NC(=O)NC1=O (configuration not stated)"
  TGI: "> 100 µM"
- compound: "Cc1cc(Cl)ccc1NC(=O)C(=O)Cc1nc2ccccc2o1"
  TGI: "> 100 µM"

Kindly give each listed record's TGI.
1. CSc1ncnc2c1ncn2CCC(=O)OC(C)(C)C
2. CC12CP(=O)(c3ccccc3)CC1C2(Cl)Cl (configuration not stated)

1: > 100 µM; 2: > 100 µM

---

System: SNB-19 CNS
run.description: NCI tumour cell line growth inhibition, 48 h
metric.name: TGI

Kindly give each listed record's TGI.
1. CCCC(=O)Nc1cc2c3c(c1)CCCN3CCC2
2. CC1CCC(=O)C(C(=O)CC2CC(=O)N(C)C(=O)C2)C1 (configuration not stated)
3. C[C@H](CCC(=O)O)[C@H]1CC[C@H]2[C@@H]3CC[C@@H]4C[C@H](O)CC[C@]4(C)[C@H]3C[C@H](O)[C@]12C
4. CCOC1OC(=O)c2cc3ccc4c(c3c(-c3ccc5c(c3)OCO5)c21)OCO4 (configuration not stated)
5. CCOC(=O)C(=[N+]=[N-])[Si](C)(C)C
6. CCC[CH2][Sn]([Cl])([CH2]CCC)[CH2]CCC
7. COC(=O)c1ccccc1/C=C1\Cc2ccc(C)c(C)c2C1=O

1: > 10 µM; 2: > 100 µM; 3: > 100 µM; 4: > 100 µM; 5: > 100 µM; 6: 0.346 µM; 7: > 100 µM

Kindly give each listed record's TGI.
1. CCOC(=O)C12OC(CCC1=O)C(C(=O)OC)=C2C(=O)OC (configuration not stated)
2. COc1cc(C2c3cc4c(cc3OC3(OC)COC(=O)C23)OCO4)cc(OC)c1OC(C)=O (configuration not stated)
3. COc1c(OC[C@H](O)CN2CCOCC2)ccc2c3n(c(=NC(=O)c4cccnc4C)nc12)CCN3

1: > 10 µM; 2: > 100 µM; 3: > 50 µM

Kindly give each listed record's TGI.
1. N#CCCN(C(=O)Nc1ccccc1)[C@H]1CCCC[C@@H]1N(C(=O)Nc1ccccc1)c1ccccc1
2. CCOC(=O)Nc1ccc(-c2nc(-c3cccc(OCCN4CCOCC4)c3)c(-c3ccnc(Br)c3)[nH]2)cc1
3. CC1(CCOCc2ccccc2)NC(=O)NC1=O (configuration not stated)

1: > 100 µM; 2: > 100 µM; 3: > 100 µM
